Target: CIC-1 channels (Rattus norvegicus, UniProt P35524)
Sequence (P35524 1-994): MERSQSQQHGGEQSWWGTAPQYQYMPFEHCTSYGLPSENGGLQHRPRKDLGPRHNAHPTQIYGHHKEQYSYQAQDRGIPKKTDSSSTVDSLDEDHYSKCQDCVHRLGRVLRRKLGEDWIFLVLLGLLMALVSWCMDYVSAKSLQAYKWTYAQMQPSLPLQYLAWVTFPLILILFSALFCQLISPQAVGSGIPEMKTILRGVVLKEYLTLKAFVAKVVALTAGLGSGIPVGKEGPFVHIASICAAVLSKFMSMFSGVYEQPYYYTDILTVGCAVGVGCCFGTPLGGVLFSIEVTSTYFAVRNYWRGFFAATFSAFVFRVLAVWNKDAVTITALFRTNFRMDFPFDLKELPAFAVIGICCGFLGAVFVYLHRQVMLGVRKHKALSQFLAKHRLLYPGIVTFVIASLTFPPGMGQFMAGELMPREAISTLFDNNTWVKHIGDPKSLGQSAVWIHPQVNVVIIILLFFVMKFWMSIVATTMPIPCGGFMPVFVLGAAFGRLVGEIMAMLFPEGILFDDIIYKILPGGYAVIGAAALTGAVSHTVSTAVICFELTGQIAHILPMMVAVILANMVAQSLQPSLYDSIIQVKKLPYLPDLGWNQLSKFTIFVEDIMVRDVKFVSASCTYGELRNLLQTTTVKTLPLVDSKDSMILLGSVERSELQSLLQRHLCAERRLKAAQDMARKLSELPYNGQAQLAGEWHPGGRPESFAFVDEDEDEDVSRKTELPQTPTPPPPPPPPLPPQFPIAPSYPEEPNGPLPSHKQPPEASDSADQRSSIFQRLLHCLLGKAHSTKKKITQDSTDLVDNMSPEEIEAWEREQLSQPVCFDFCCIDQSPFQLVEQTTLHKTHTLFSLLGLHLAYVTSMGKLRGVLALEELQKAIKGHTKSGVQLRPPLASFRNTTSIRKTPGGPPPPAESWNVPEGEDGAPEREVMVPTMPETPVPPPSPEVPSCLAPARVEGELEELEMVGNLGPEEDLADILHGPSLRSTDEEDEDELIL
Test: Electrophysiological measurement of compound inhibition of CIC-1 in rat muscle (Gm, three micro-electrode technique, soleus muscle fibres)
Settings: reduction of Gm in rat soleus muscle fibres, approx. 30°C; mean ± spread, n = number of experiments
pEC50: −log10 of the molar value.
MEASURED_ENDPOINT: pEC50

P: C#Cc1cc(Br)ccc1O[C@@H](C)C(=O)O
Q: C#Cc1cc(Br)ccc1O[C@H](C(=O)O)C1CCC1
I would appreciate it if you could say which entry, P or Q , has the lower pEC50 value. Mark your selection by writing its label.
Q

a: C[C@H](Oc1ccc(Br)cc1C=C(F)F)C(=O)O
b: O=C(O)COc1ccc(Br)cc1C1CC1
Pick one: a or b . Which one has the lower reported pEC50? Return value: the label identifying the chosen record.
b
(b: 5.19, a: 5.43)

###

Target: CIC-1 channels (Rattus norvegicus, UniProt P35524)
Assay: Electrophysiological measurement of compound inhibition of CIC-1 in rat muscle (Gm, three micro-electrode technique, soleus muscle fibres)
Conditions: reduction of Gm in rat soleus muscle fibres, approx. 30°C; mean ± spread, n = number of experiments
pEC50: −log10 of the molar value.
MEASURED_ENDPOINT: pEC50

A: C=Cc1cc(Br)ccc1O[C@@H](C)C(=O)O [Compound A-17]
B: C#Cc1cc(Br)ccc1O[C@@H](CC)C(=O)O [Compound A-54]
Hi, I'm comparing A with B and wondering which one has the bigger number for pEC50. Any idea? Kindly state the label of the option you pick.
A
(A: 5.38, B: 5.14)

Taken from patent EP3723746B1.
